Values from PubChem BioAssay (NCI)

# System: HCC-2998 colon
# assay-text: NCI-60 one-dose screen, 48 h (100 = growth as untreated, 0 = no growth, -100 = all killed)
# condition-description: 10 µM unless noted
About 83,000 compounds went through this panel and 20% of them were active in at least one assay; those are over-represented in the sample as a whole. Activity calls are given as the source filed them. The calls were made as follows: active = growth percent below 10; inactive = the rest.
measurement-name: growth

Sample records with growth:
- molecule: "COc1cc(-c2nn(-c3ccc(NC(=O)Nc4ccc(Cl)c(C(F)(F)F)c4)cc3)cc2-c2ccncc2)ccc1Cl"
  recorded-result: "-2.15% (active)"
- molecule: "CNc1ccc(Nc2ccc(S(=O)(=O)O)cc2)c2c1C(=O)c1ccccc1C2=O"
  recorded-result: "112% (inactive)"
- molecule: "Cc1cc2cn3c4ccc(O)cc4[nH]c(=O)c3c2cc1C"
  recorded-result: "24.1% (inactive)"
- molecule: "CCn1cc(C(=O)O)c(=O)c2cc(F)c(N3CCN(S(=O)(=O)c4ccc(Cl)cc4)CC3)cc21"
  recorded-result: "24.5% (inactive)"

Request: Give growth for `CCCCCCNC(=O)Oc1ccc(/C(=C(/C)Cc2ccc(OC)cc2)c2ccc(OCCN(C)C)cc2)cc1` tested on HCC-2998 colon.
Result: 52.4% (inactive)

Request: Provide growth, tested on HCC-2998 colon, for `COC(=O)c1cc(Nc2ccc(O)c3c2C(=O)c2c([N+](=O)[O-])ccc(O)c2C3=O)cc(C(=O)OC)c1` .
Result: 36.3% (inactive)

Request: For HCC-2998 colon, give the measured growth of the entry `N=C(N)N=Nc1ccc(NN=C(N)N)c2ccccc12`
Result: 106% (inactive)

Request: Supply growth measured with HCC-2998 colon for `CC1(C)NCCC[C@]2(C)[C@H]3CC=C4[C@@H]5C[C@](C)(COC(=O)c6ccccc6C(=O)O)CC[C@]5(C)CC[C@@]4(C)[C@]3(C)CC[C@@H]12` .
Result: 73.4% (inactive)

---

# System: UO-31 renal
# assay-text: NCI-60 one-dose screen, 48 h (100 = growth as untreated, 0 = no growth, -100 = all killed)
# condition-description: 10 µM unless noted
About 83,000 compounds went through this panel and 20% of them were active in at least one assay; those are over-represented in the sample as a whole. Activity calls are given as the source filed them. How the source made its calls: active means growth percent below 10; inactive means the rest.
Collected growth values appear next to each entry.

Request: Kindly indicate its recorded growth. Item: `CCOc1ccc2nc3ccc(Cl)cc3nc2c1`
Result: 74.9% (inactive)

---

# System: HCC-2998 colon
# assay-text: NCI-60 one-dose screen, 48 h (100 = growth as untreated, 0 = no growth, -100 = all killed)
# condition-description: 10 µM unless noted
The panel holds about 83,000 compounds, 20% with a hit somewhere; the sample as a whole holds those more often.
# maps each entry to its growth
// note: answer is a bare numeric in %

Look over these answered cases.
- molecule: "O=C(/C=C1\\C(=O)N(Cc2ccc([N+](=O)[O-])cc2)c2ccccc21)c1ccc(OCCN2CCCCC2)cc1"
  growth / %: 42.1
- molecule: "CCCCCSc1ccc2nc(NC(=O)OCC)sc2c1"
  growth / %: 55
- molecule: "CCS(=O)(=O)OCCO[C@H]1Cc2cc3ccc(=O)oc3cc2OC1(C)C"
  growth / %: 109
- molecule: "COc1cc(-c2c3c(cn2CCN2CCCCC2)-c2oncc2CC3)cc(OC)c1OC"
  growth / %: 106

Request: Entry `O=C(Nc1ccc(Cl)cn1)C1(c2ccccc2)CCCCC1` needs its growth filled in; supply it.
Result: 99.1

---

# System: RPMI-8226 leukemia
# assay-text: NCI-60 one-dose screen, 48 h (100 = growth as untreated, 0 = no growth, -100 = all killed)
# condition-description: 10 µM unless noted
About 83,000 compounds went through this panel and 20% of them were active in at least one assay; those are over-represented in the sample as a whole.
measurement-name: growth (%)
Kindly provide the numeric value in % only, without the unit symbol.

- compound: "CCCCCCCCCCCCc1ccc([N+](CC)(CC)CC)cc1"
  growth, %: 6.37
- compound: "CC(C)OC(=O)[C@H](C)N[P@@](=O)(OC[C@@]1(C)O[C@@H](n2cc(F)c(N)nc2=O)C[C@@H]1O[P@](=O)(N[C@@H](C)C(=O)OC(C)C)Oc1ccccc1)Oc1ccccc1"
  growth, %: 105
- compound: "CCOC1=C(Cl)C(=O)C(OCC)=C(Cl)C1=O"
  growth, %: 105
- compound: "COCn1c(C(=O)OC)cc2oc(/C=C3/SC(=S)N(N)C3=O)cc21"
  growth, %: 79.2

Request: Please report growth for the following compound: COC(=O)/C=C1/CCCCC1(C)C(=O)OC (stereo not drawn)
Result: 101

Request: Supply growth value. Item: `c1cc(C2CCCCC2)ccc1OCCCCCCN1CCNCC1`
Result: -31

Request: // fetch growth given entry Cc1ccc(S(=O)(=O)N/N=C2\CC3CCC2C3)cc1 (stereo not drawn)
Result: 104

Request: Provide measured growth value, entry: `CCCCCCCCCCCCCCCCNC(=S)N/N=C/c1ccc(OC)cc1`
Result: 93.2

Request: Query growth for CC(O)CN(CC(C)O)N(CC(C)O)CC(C)O (stereo not drawn)
Result: 98.9

Request: Find the measured growth of `CCCCCCCCCCCCOC(=N)N(C)C` and report it.
Result: 99.7

Request: Report measured growth; entry is `C=CCNCCC#N`
Result: 101

Request: Provide only the value of recorded growth for `O=C(/C=C/c1ccc(Br)cc1)c1ccccc1`
Result: 1.56

Request: Tell me measured growth for `Oc1ccc([S+](c2ccc(O)cc2)c2ccc(O)cc2)cc1` please.
Result: 96

Request: Identify measured growth associated with `Cc1nc2c(nnn2-c2ccccc2)c2nc(-c3ccccc3)oc(=O)c12`
Result: 113

Request: Name the recorded growth of the item `COc1cc2ncnc(-n3ncc4cc(NC(=O)Nc5ccc(Cl)c(C)c5)ccc43)c2cc1OC` in your answer.
Result: 96.8

Request: Item `Nc1ccc(S(=O)(=O)Nc2cc(F)cc(F)c2)cc1` : provide growth
Result: 106

Request: Read off the recorded growth for `CCOC(=O)NNc1[nH]c(-c2ccc(OC)cc2)cc1C#N`
Result: 91.2

Request: Using known records, supply growth for `COc1ccc(Nc2c3ccccc3nc3ccccc23)cc1`
Result: 28.1

---

# Test system: SK-MEL-28 melanoma
# assay-text: NCI-60 one-dose screen, 48 h (100 = growth as untreated, 0 = no growth, -100 = all killed)
# condition-description: 10 µM unless noted
This is part of a sample that, as a whole, favours compounds with a hit. Of some 83,000 tested, about 20% had one in any assay.
Listed next: entries and their corresponding growth.
Unit % implied. Number only.

Consider the reported growth for these compounds:
- compound: "CCOC(=O)c1cc(-c2ccc(OC)cc2)[nH]c1NNC(=O)CCOC"
  recorded-result: 114
- compound: "CCOc1ccc2nc3ccc(Cl)cc3nc2c1"
  recorded-result: 113
- compound: "C=CC1CN2CCC1CC2C(O)c1ccnc2ccc(OC)cc12 (stereo unspecified)"
  recorded-result: 115
- compound: "Oc1ccccc1\\C=N/N=C/C=C/c1ccccc1"
  recorded-result: 111
- compound: "CCCCN(CCCC)CCCNc1c2c(nc3ccc(Cl)cc13)CCCC2"
  recorded-result: 108

Request: Give reported growth value for `CC(=O)N1CCN(CCNC(=O)n2cc(-c3ccncc3)c(-c3ccc(O)c(Cl)c3)n2)CC1`
Result: 85.5

Request: Please give the documented growth of CC(O)C(N)=O (stereo unspecified)
Result: 100

Request: Indicate the recorded growth value for this compound: CCCC(C)c1cc(Cc2cc(Cl)cc(Cl)c2O)c(O)c(Cc2cc(Cl)cc(Cl)c2O)c1 (stereo unspecified)
Result: 8.03

Request: Answer with the recorded growth of CC1CCCCC[N+]12CCCC2 (stereo unspecified) only.
Result: 109

Request: Determine from records and report growth for `CNCCCNCCCCNCCCN1C(=O)c2ccc3c4c(ccc(c24)C1=O)C(=O)N(CCCNCc1ccccc1OC)C3=O`
Result: -9.35

Request: For `N=C(N)c1ccc(-c2ccc(-c3ccc(F)cc3)s2)cc1` , write its growth.
Result: -85.9

---

# Tested on: SK-MEL-2 melanoma
# assay-text: NCI-60 one-dose screen, 48 h
# condition-description: 10 µM unless noted
Compounds without any hit were thinned out: in the full panel of roughly 83,000, 20% have a hit. Active and inactive are the calls of the source. Rule for the calls: active = growth percent below 10; inactive = the rest.
Response enum: active, inactive

- compound: "CC1=C[C@@H]2c3c(c(O)c(O)c4oc5cc(O)cc(O)c5c(=O)c34)[C@@H](c3cc(O)c(O)c4oc5cc(O)cc(O)c5c(=O)c34)[C@@H]2C(C)(C)C1"
  qualitative-label: "active"
- compound: "COc1cc(NC(C)CCCN)c2nccc(C)c2c1OC (centres undefined)"
  qualitative-label: "inactive"
- compound: "COc1ccc(C(=O)CN2C(=O)NC(c3ccccc3)(c3ccccc3)C2=O)cc1"
  qualitative-label: "inactive"
- compound: "O=C(O)CC1Cc2ccccc2C1C(=O)O (centres undefined)"
  qualitative-label: "inactive"
- compound: "Cc1ccc(C(=O)Nc2ccc(CN3CCN(C)CC3)c(C(F)(F)F)c2)cc1C#Cc1cnc(N)c2ccc(F)cc12"
  qualitative-label: "active"
- compound: "Cc1ccc(NCc2cn(-c3ccc(C(=O)O)cc3)nc2-c2ccc(C(=O)O)cc2)cc1"
  qualitative-label: "inactive"
- compound: "Cc1c(O)c(N=Nc2ccc(C(=O)O)c(O)c2)c2ccccc2c1O"
  qualitative-label: "inactive"
- compound: "COC(=O)c1ccc2[nH]c(O)c(C(=Nc3ccc(N(C)C(=O)CN4CCN(C)CC4)cc3)c3ccc(CCO)cc3)c2c1"
  qualitative-label: "inactive"

Request: What did the test return for `CCS(=O)(=O)OCCO[C@H]1Cc2cc3ccc(=O)oc3cc2OC1(C)C` ?
Result: inactive
